Quick reference: pIC50 of the listed items.
Tested on: Plasmodium falciparum
Test: Antimalarial activity against Plasmodium falciparum 3D7A infected erythrocytes by [3H]hypoxanthine uptake
Format: functional, organism-based
pIC50: −log10 of the molar value.

smiles	sign.qualifier	pIC50
Cc1[nH]c(C)c([N+](=O)[O-])c(=O)c1-c1ccc(Oc2ccc(OC(F)(F)F)cc2)cc1	=	7.52
Cc1[nH]c(C)c(-c2ccc(Oc3ccc(OC(F)(F)F)cc3)cc2)c(=O)c1Cl	=	8.30
Cc1[nH]c(C)c(-c2ccccc2Oc2ccc(OC(F)(F)F)cc2)c(=O)c1Br	=	6.40
O=c1c(-c2ccc(Oc3ccc(OC(F)(F)F)cc3)cc2)c[nH]c(C(F)(F)F)c1Br	<	6.00
COc1c(C)[nH]c(C)c(-c2ccc(Oc3cccc(C(F)(F)F)c3)cc2)c1=O	=	6.52
Cc1[nH]c(C)c(-c2ccc(Oc3ccc(OC(F)(F)F)cc3)cc2)c(=O)c1CN1CCCC1	=	5.89
Cc1[nH]c(C)c(-c2ccc(Oc3cccc(C(F)(F)F)c3)cc2)c(=O)c1Cl	=	8.30
Cc1[nH]c(C)c(-c2ccc(Oc3ccc(OC(F)(F)F)cc3)cc2)c(=O)c1Br	=	8.10
Cc1[nH]cc(Br)c(=O)c1-c1ccc(Oc2ccc(OC(F)(F)F)cc2)cc1	=	6.96

Values from ChEMBL document CHEMBL1150240
